Where do the numbers come from? From patent US20160166576A1.

Measured Metric: IC50 (nM)
Give your result in nM as a bare value.

-- ask For UniProt:Q9NWZ3, give IC50 of the listed molecule: Cc1ccc(-n2nc(N3CCN(C)CC3)cc2NC(=O)c2cnn3ccccc23)nc1 [Compound A, reference compound]
Sequence (Q9NWZ3 whole entry): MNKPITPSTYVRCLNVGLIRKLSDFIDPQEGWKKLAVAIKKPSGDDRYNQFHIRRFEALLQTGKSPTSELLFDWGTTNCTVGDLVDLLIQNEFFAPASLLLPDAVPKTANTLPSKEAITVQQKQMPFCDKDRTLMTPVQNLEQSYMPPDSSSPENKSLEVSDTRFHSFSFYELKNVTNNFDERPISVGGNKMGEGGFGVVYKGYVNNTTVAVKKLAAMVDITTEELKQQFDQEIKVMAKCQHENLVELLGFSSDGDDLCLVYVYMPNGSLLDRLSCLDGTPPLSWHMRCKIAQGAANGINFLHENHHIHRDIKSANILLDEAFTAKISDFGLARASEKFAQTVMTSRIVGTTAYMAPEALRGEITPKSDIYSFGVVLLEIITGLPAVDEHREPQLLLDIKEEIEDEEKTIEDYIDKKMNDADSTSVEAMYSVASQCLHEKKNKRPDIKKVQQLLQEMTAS
-- reply 2
